Reference source: the C3SDB collision cross section collection

- conditionDescription: [M+H]+; instrument: DT; stepped-field
valueType: collision cross section (N2) (Å²)

compound | experimentalResult
CCCC/C=C\CCCCCCCC(=O)OC[C@H](COP(=O)([O-])OCC[N+](C)(C)C)OC(=O)CCCCCCCCC/C=C\C/C=C\CCCCC [PC(34:03)] | 277.12
CCCCCCCCCCCCCCCCCCCCCCCC(=O)N[C@@H](CO[C@@H]1O[C@H](CO)[C@@H](O)C(O)C1O)[C@H](O)CCCCCCCCCCCCCCC (some centres not stated) [GlcCer(42:00)] | 302.3
CCCCC/C=C\C/C=C\CCCCCCCCCC(=O)O[C@H](COC(=O)CCCCCCC/C=C\CCCCCC)COP(=O)(O)OCCN [PE(36:03)] | 273.34
CCCCCCCCCC/C=C\CCCCCCCCCC(=O)O[C@H](COC(=O)CCCCCCCCCCCCCCCCCCC)COP(=O)(O)OC[C@H](N)C(=O)O [PS(42:01)] | 301.86
CCCCCC/C=C\CCCCCCCCCC(=O)O[C@H](COC(=O)CCCCCCC/C=C\CCCCCC)COP(=O)([O-])OCC[N+](C)(C)C [PC(34:02)] | 279.51
CCCCCCCCCCCCC=CC[C@@H](O)[C@H](COP(=O)([O-])OCC[N+](C)(C)C)NC(=O)CCCCCCCCCCCCCCC [SM(34:01)] | 280.06
CCCCC/C=C\C/C=C\CCCCCCCCCCCC(=O)O[C@H](COC(=O)CCCCCCC/C=C\CCCCCCCC)COP(=O)(O)OC[C@H](N)C(=O)O [PS(40:03)] | 292.62
CCCCC/C=C\C/C=C\C/C=C\CCCCC(=O)O[C@H](COCCCCCCCCCCCCCCCCCC)COP(=O)(O)OCCN [PE(o36:03)] | 272.47
CCCCCCCC/C=C\CCCCCCCC(=O)O[C@H](COC(=O)CCCCCCCCCCCCCCCC)COP(=O)([O-])OCC[N+](C)(C)C [PC(35:01)] | 284.63
CCCCCCCCCCCCC=CC[C@@H](O)[C@H](CO[C@@H]1O[C@H](CO)[C@@H](O)C(O)C1O)NC(=O)CC=CCCCCCCCCCCCCCC (some centres not stated) [GlcCer(36:02)] | 281.37
CCCCCCCC/C=C\CCCCCCCCCC(=O)O[C@H](COC(=O)CCCCCCCCCCC)COP(=O)([O-])OCC[N+](C)(C)C [PC(32:01)] | 276.5
CCCCCCCCCCCCCCCCCCCC(=O)N[C@@H](CO)[C@H](O)CCCCCCCCCCCCCCC [Cer(38:00)] | 267.37

###

- conditionDescription: [M+H]+; instrument: DT; single field, calibrated with Agilent tune mix (Agilent)

molecule | collision cross section (N2), Å²
C[N+](C)(C)CCCC[C@H](N)C(=O)[O-] | 142
CN(C)CCc1ccc(O)cc1 | 137.8
N[C@@H](CCSC[C@H](N)C(=O)O)C(=O)O | 147
NC(=O)NCCC[C@H](N)C(=O)O | 138
Nc1ccc(C(=O)[O-])cc1 [4-Aminobenzoate] | 140.4
Nc1nc(=O)c2nc([C@H](O)[C@H](O)CO)cnc2[nH]1 | 157.1
N[C@@H](CCCCNC(=O)CCCC[C@@H]1SC[C@@H]2NC(=O)N[C@@H]21)C(=O)O | 186.8
C[N+](C)(C)CCO | 117.8
Nc1nc(=O)c2ncn([C@@H]3O[C@H](COP(=O)(O)O)[C@@H](O)[C@H]3O)c2[nH]1 [Guanosine 5'-monophosphate] | 178.9
CC(=O)NCCCCN | 128.3
